Target: human recombinant bradykinin B1 receptor (Homo sapiens)
Construct: purchased Euroscreen ES-091; host or cells: CHO cells
Sequence (P46663 whole entry): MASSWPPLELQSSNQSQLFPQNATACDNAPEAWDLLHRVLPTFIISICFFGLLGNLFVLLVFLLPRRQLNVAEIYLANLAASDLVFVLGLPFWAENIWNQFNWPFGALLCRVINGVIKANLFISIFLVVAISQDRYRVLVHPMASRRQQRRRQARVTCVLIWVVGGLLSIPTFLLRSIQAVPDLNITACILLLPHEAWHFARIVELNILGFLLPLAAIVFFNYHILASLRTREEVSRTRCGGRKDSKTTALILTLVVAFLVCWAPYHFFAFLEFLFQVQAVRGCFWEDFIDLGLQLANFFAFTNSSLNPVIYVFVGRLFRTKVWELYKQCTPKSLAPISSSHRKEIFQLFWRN
Test: Human recombinant bradykinin B1 receptor binding
Details: reference compounds, binding test; read-out: Ki
pKi: −log10 of the molar value.
QUANTITY_MEASURED: pKi

                                   molecule  measured_number
0  CCCN1C(=O)[C@H](NC(=O)Nc2ccc(N3CCN(c4ccncc4)CC3)cc2)N=C(CCc2ccccc2)c2ccccc21 [compound 2, reference compound]             9.23
1  CCCN1C(=O)[C@H](NC(=O)Nc2ccc(N3CCC(N4CCCCC4)CC3)cc2)N=C(c2ccc(C)cc2)c2ccccc21 [compound 3, reference compound]             7.87
2  CN1CCN(C(=O)C2CCN(S(=O)(=O)c3ccc(NCC(c4ccccc4)c4ccccc4)c(C(=O)N4CCOCC4)c3)CC2)CC1 [NVP-SAA164, reference compound]             8.10
